All values here come from the supplement of paper PMC10307832.

tested on: NCI-H2405; test: relative viability (nuclei count vs DMSO), 5 days (fraction); higher = more cells survive; details: first compound 0.08 µM
What relative viability was measured for each of the following?
Numbers only.

// solved cases for relative viability follow
molecule	relative viability
Oc1nc(-c2ccc(C(F)(F)F)cc2)nc2c1CSCC2 [XAV939] + Cc1nc(Nc2ncc(C(=O)Nc3c(C)cccc3Cl)s2)cc(N2CCN(CCO)CC2)n1 [Dasatinib] (partner 0.075 µM)	0.221
C=C1C(=O)O[C@@H](CCCCCCCC)[C@@H]1C(=O)O [C-75] + CC(=O)Nc1cccc(-n2c(=O)n(C3CC3)c(=O)c3c(Nc4ccc(I)cc4F)n(C)c(=O)c(C)c32)c1 [Trametinib] (partner 0.02 µM)	0.635

For the molecule C=C1C(=O)O[C@@H](CCCCCCCC)[C@@H]1C(=O)O [C-75] + Cc1cc(Nc2cc(N3CCN(C)CC3)nc(Sc3ccc(NC(=O)C4CC4)cc3)n2)n[nH]1 [Tozasertib] (partner 0.1 µM) , what relative viability is on record?
0.747

###

test system: NCI-H358; assay: relative viability (nuclei count vs DMSO), 5 days (fraction); higher = more cells survive; settings: first compound 0.08 µM
property measured: relative viability
Answers are plain numbers.

compound	relative viability
C=C1C(=O)O[C@@H](CCCCCCCC)[C@@H]1C(=O)O [C-75] + C[C@@H](Oc1cc(-c2cnn(C3CCNCC3)c2)cnc1N)c1c(Cl)ccc(F)c1Cl [Crizotinib] (partner 1 µM)	0.63
C=C1C(=O)O[C@@H](CCCCCCCC)[C@@H]1C(=O)O [C-75] + Nc1ncn([C@H]2C[C@H](O)[C@@H](CO)O2)c(=O)n1 [Decitabine] (partner 2 µM)	0.212
C=C1C(=O)O[C@@H](CCCCCCCC)[C@@H]1C(=O)O [C-75] + Cc1cc(Nc2cc(N3CCN(C)CC3)nc(Sc3ccc(NC(=O)C4CC4)cc3)n2)n[nH]1 [Tozasertib] (partner 0.1 µM)	0.0979
Oc1nc(-c2ccc(C(F)(F)F)cc2)nc2c1CSCC2 [XAV939] + C[C@]1(O)C[C@@H](c2nc(-c3ccc4ccc(-c5ccccc5)nc4c3)c3c(N)nccn32)C1 [Linsitinib] (partner 1 µM)	0.832
C=C1C(=O)O[C@@H](CCCCCCCC)[C@@H]1C(=O)O [C-75] + COc1cccc2cc(-c3nc([C@H]4CC[C@H](C(=O)O)CC4)n4ncnc(N)c34)[nH]c12 [OSI-027] (partner 0.5 µM)	0.714

Next item in the queue.
Which value of relative viability has been reported for Oc1nc(-c2ccc(C(F)(F)F)cc2)nc2c1CSCC2 [XAV939] + COc1cc2c(Oc3ccc(NC(=O)C4(C(=O)Nc5ccc(F)cc5)CC4)cc3F)ccnc2cc1OCCCN1CCOCC1 [Foretinib] (partner 0.25 µM) in the records?
0.722

###

Please respond with reported relative viability for every item in the list.
test system: NCI-H1651; experiment: relative viability (nuclei count vs DMSO), 5 days (fraction); higher = more cells survive; conditions: first compound 0.04 µM
Numbers only.

molecule	assay target	relative viability
O=C(O)c1ccc(-c2c[nH]c3ncc(-c4ccccc4)cc23)cc1C1CCCC1 + CC(=O)Nc1cccc(-n2c(=O)n(C3CC3)c(=O)c3c(Nc4ccc(I)cc4F)n(C)c(=O)c(C)c32)c1 [Trametinib] (partner 0.02 µM)	NCI-H1651	0.822
O=C(O)c1ccc(-c2c[nH]c3ncc(-c4ccccc4)cc23)cc1C1CCCC1 + Cc1nc(Nc2ncc(C(=O)Nc3c(C)cccc3Cl)s2)cc(N2CCN(CCO)CC2)n1 [Dasatinib] (partner 0.075 µM)	NCI-H1651	0.333
O=C(O)c1ccc(-c2c[nH]c3ncc(-c4ccccc4)cc23)cc1C1CCCC1 + COc1cccc2cc(-c3nc([C@H]4CC[C@H](C(=O)O)CC4)n4ncnc(N)c34)[nH]c12 [OSI-027] (partner 0.5 µM)	NCI-H1651	0.659

List relative viability for every entry below, keeping the order given.
1. O=C(O)c1ccc(-c2c[nH]c3ncc(-c4ccccc4)cc23)cc1C1CCCC1 + Cc1nc(NC(=O)N2CCC[C@H]2C(N)=O)sc1-c1ccnc(C(C)(C)C(F)(F)F)c1 [Alpelisib] (partner 2 µM)
2. O=C(O)c1ccc(-c2c[nH]c3ncc(-c4ccccc4)cc23)cc1C1CCCC1 + N=C(N)NC(=N)NCCc1ccccc1 [Phenformin] (partner 250 µM)

1. 0.977
2. 0.349

###

system: NCI-H2126; experiment: relative viability (nuclei count vs DMSO), 5 days (fraction); higher = more cells survive; conditions: first compound 0.8 µM
Please go through the items and note down their relative viability.

Guide cases for relative viability, answers given:
compound	property measured	experimental result
Oc1nc(-c2ccc(C(F)(F)F)cc2)nc2c1CSCC2 [XAV939] + COc1cc2c(Oc3ccc(NC(=O)C4(C(=O)Nc5ccc(F)cc5)CC4)cc3F)ccnc2cc1OCCCN1CCOCC1 [Foretinib] (partner 0.25 µM)	relative viability	1.17
Oc1nc(-c2ccc(C(F)(F)F)cc2)nc2c1CSCC2 [XAV939] + C[C@]1(O)C[C@@H](c2nc(-c3ccc4ccc(-c5ccccc5)nc4c3)c3c(N)nccn32)C1 [Linsitinib] (partner 1 µM)	relative viability	0.672
C=C1C(=O)O[C@@H](CCCCCCCC)[C@@H]1C(=O)O [C-75] + Nc1ncn([C@H]2C[C@H](O)[C@@H](CO)O2)c(=O)n1 [Decitabine] (partner 2 µM)	relative viability	0.609

Which relative viability is reported with NCI-H2126 for this entry: C=C1C(=O)O[C@@H](CCCCCCCC)[C@@H]1C(=O)O [C-75] + CC1(C)CCC(c2ccc(Cl)cc2)=C(CN2CCN(c3ccc(C(=O)NS(=O)(=O)c4ccc(N[C@H](CCN5CCOCC5)CSc5ccccc5)c(S(=O)(=O)C(F)(F)F)c4)cc3)CC2)C1 [Navitoclax] (partner 0.5 µM) ?
0.871

###

test system: PC-14; experiment: relative viability (nuclei count vs DMSO), 5 days (fraction); higher = more cells survive; details: first compound 0.005 µM
Assign labels as follows, please: Met for relative viability below 0.6; Not met for relative viability equal to or exceeding 0.6.

Recorded results for 3 molecules are shown here.
molecule	class label
CC1(C)CCC(c2ccc(Cl)cc2)=C(CN2CCN(c3ccc(C(=O)NS(=O)(=O)c4ccc(N[C@H](CCN5CCOCC5)CSc5ccccc5)c(S(=O)(=O)C(F)(F)F)c4)cc3)CC2)C1 [Navitoclax] + O=C(CCCCCCC(=O)Nc1ccccc1)NO [Vorinostat] (partner 1 µM)	Not met
CC1(C)CCC(c2ccc(Cl)cc2)=C(CN2CCN(c3ccc(C(=O)NS(=O)(=O)c4ccc(N[C@H](CCN5CCOCC5)CSc5ccccc5)c(S(=O)(=O)C(F)(F)F)c4)cc3)CC2)C1 [Navitoclax] + CS(=O)(=O)CCNCc1ccc(-c2ccc3ncnc(Nc4ccc(OCc5cccc(F)c5)c(Cl)c4)c3c2)o1 [Lapatinib] (partner 2 µM)	Met
CC1(C)CCC(c2ccc(Cl)cc2)=C(CN2CCN(c3ccc(C(=O)NS(=O)(=O)c4ccc(N[C@H](CCN5CCOCC5)CSc5ccccc5)c(S(=O)(=O)C(F)(F)F)c4)cc3)CC2)C1 [Navitoclax] + CCNC(=O)c1noc(-c2cc(C(C)C)c(O)cc2O)c1-c1ccc(CN2CCOCC2)cc1 [Luminespib] (partner 0.01 µM)	Met

relative viability strictly < 0.6 for this molecule? CC1(C)CCC(c2ccc(Cl)cc2)=C(CN2CCN(c3ccc(C(=O)NS(=O)(=O)c4ccc(N[C@H](CCN5CCOCC5)CSc5ccccc5)c(S(=O)(=O)C(F)(F)F)c4)cc3)CC2)C1 [Navitoclax] + Cc1nc(NC(=O)N2CCC[C@H]2C(N)=O)sc1-c1ccnc(C(C)(C)C(F)(F)F)c1 [Alpelisib] (partner 2 µM)
Not met

###

test system: NCI-H1734; test: relative viability (nuclei count vs DMSO), 5 days (fraction); higher = more cells survive; conditions: first compound 1.265 µM
Please provide measured relative viability for the entries that follow.
Numbers only.

compound	relative viability
O=C(O)c1ccc(-c2c[nH]c3ncc(-c4ccccc4)cc23)cc1C1CCCC1 + Cc1nc(Nc2ncc(C(=O)Nc3c(C)cccc3Cl)s2)cc(N2CCN(CCO)CC2)n1 [Dasatinib] (partner 0.075 µM)	0.409
O=C(O)c1ccc(-c2c[nH]c3ncc(-c4ccccc4)cc23)cc1C1CCCC1 + O=C(CCCCCCC(=O)Nc1ccccc1)NO [Vorinostat] (partner 1 µM)	0.648
O=C(O)c1ccc(-c2c[nH]c3ncc(-c4ccccc4)cc23)cc1C1CCCC1 + CC1(C)CCC(c2ccc(Cl)cc2)=C(CN2CCN(c3ccc(C(=O)NS(=O)(=O)c4ccc(N[C@H](CCN5CCOCC5)CSc5ccccc5)c(S(=O)(=O)C(F)(F)F)c4)cc3)CC2)C1 [Navitoclax] (partner 0.5 µM)	0.686

Batch request: relative viability per item, same order as input.
1. O=C(O)c1ccc(-c2c[nH]c3ncc(-c4ccccc4)cc23)cc1C1CCCC1 + Nc1nc2[nH]cc(CCc3ccc(C(=O)N[C@@H](CCC(=O)O)C(=O)O)cc3)c2c(=O)[nH]1 [Pemetrexed] (partner 0.2 µM)
2. O=C(O)c1ccc(-c2c[nH]c3ncc(-c4ccccc4)cc23)cc1C1CCCC1 + CS(=O)(=O)N1CCN(Cc2cc3nc(-c4cccc5[nH]ncc45)nc(N4CCOCC4)c3s2)CC1 [Pictilisib] (partner 1 µM)

[0.411, 0.419]
